Provenance of the data: patent US20250320312A1

Biological target: Peptide 1: Biotin-…-[Tyr(PC)]-acid
Sequence (peptide, as listed by the source): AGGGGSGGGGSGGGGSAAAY
Assay: scFv ELISA
just bin them by OD450: lowest = under 0.6 OD450, middle = from 0.6 OD450 up to 0.9 OD450, highest = 0.9 OD450 and over

Qu. Lab log: PcOxP_DB01_E02 (scFv, V domains shown, scFv in periplasmic extract) VH: EVQLLESGGGLVQPGGSLRLSCAASGFTFSDYYMEWVRQAPGKGLEWVAASRNKGNDYTTEYADSVKGRFTISRDNSKNTLYLQMNSLRAEDTAVYYCARDYYGSSYWYFDVWGQGTLVTVSS VL: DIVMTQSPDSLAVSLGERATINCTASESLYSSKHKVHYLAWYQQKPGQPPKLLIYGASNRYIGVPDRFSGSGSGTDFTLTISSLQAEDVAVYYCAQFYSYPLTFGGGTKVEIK — assign OD450 category
Ans. lowest

Qu. Queued: PcOxP_DB01_H08 (scFv, V domains shown, scFv in periplasmic extract) VH: EVQLLESGGGLVQPGGSLRLSCAASGFTHSDFYMEWVRQAPGKGLEWVAASRNKANDYTTEYADSVKGRFTISRDNSKNTLYLQMNSLRAEDTAVYYCARDYYGSSYWYFDVWGQGTLVTVSS VL: DIQMTQSPSSLSASVGDRVTITCRASESISSSKHKHYLAWYQQKPGKAPKLLIYGASNRYIGVPSRFSGSGSGTDFTLTISSLQPEDFATYYCAQFYVYPLTFGGGTKVEIK
Ans. lowest

Qu. Queued: PcOxP_DB01_D05 (scFv, V domains shown, scFv in periplasmic extract) VH: EVQLLESGGGLVQPGGSLRLSCAASGFTFSDGYMEWVRQAPGKGLEWVAASRNKANDYTTEYADSVKGRFTISRDNSKNTLYLQMNSLRAEDTAVYYCARDYYGSPYWYFDVWGQGTLVTVSS VL: DIQMTQSPSSLSASVGDRVTITCTASESLYSSKHKVHYLAWYQQKPGKAPKLLIYGASNRYVGVPSRFSGSGSGTDFTLTISSLQPEDFATYYCAQFYSYPLTFGGGTKVEIK
Ans. middle

Qu. Queued: PcOxP_DB01_B04 (scFv, V domains shown, scFv in periplasmic extract) VH: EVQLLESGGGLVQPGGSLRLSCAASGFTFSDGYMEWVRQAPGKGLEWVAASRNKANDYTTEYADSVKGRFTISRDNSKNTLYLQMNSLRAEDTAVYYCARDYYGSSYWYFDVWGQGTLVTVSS VL: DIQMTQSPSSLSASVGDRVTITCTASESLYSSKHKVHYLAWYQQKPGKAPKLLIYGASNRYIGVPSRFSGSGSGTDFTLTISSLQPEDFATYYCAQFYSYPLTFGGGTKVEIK
Ans. lowest

---
Qu. Lab log: PcOxP_DB01_C06 (scFv, V domains shown, scFv in periplasmic extract) VH: EVQLLESGGGLVQPGGSLRLSCAASGFEFSDNYMEWVRQAPGKGLEWVAASRNKANDYTTEYADSVKGRFTISRDNSKNTLYLQMNSLRAEDTAVYYCARDYYGSSYWYFDVWGQGTLVTVSS VL: DIQMTQSPSSLSASVGDRVTITCTASESLYSSKHKVHYLAWYQQKPGKAPKLLIYGASNRFIGVPSRFSGSGSGTDFTLTISSLQPEDFATYYCAQFYYYPLTFGGGTKVEIK — assign OD450 category
Ans. highest

Qu. Queued: PcOxP_DB01_C08 (scFv, V domains shown, scFv in periplasmic extract) VH: EVQLLESGGGLVQPGGSLRLSCAASGFTFSDGYMEWVRQAPGKGLEWVAASRNKANDYTTEYADSVKGRFTISRDNSKNTLYLQMNSLRAEDTAVYYCARDYYASSYWYFDVWGQGTLVTVSS VL: DIQMTQSPSSLSASVGDRVTITCRASESISSSKNKVHYLAWYQQKPGKAPKLLIYGASNRYYGVPSRFSGSGSGTDFTLTISSLQPEDFATYYCAQFYSYPLTFGGGTKVEIK
Ans. lowest

Qu. Queued: PcOxP_DB03_B09 (scFv, V domains shown, scFv in periplasmic extract) VH: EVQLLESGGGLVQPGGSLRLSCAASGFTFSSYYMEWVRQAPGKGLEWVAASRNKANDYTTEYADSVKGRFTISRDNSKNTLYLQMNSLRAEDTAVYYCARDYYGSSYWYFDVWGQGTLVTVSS VL: DIVMTQSPDSLAVSLGERATINCTASESLYSSKHKVHYLAWYQQKPGQPPKLLIYGAANRYIGVPDRFSGSGSGTDFTLTISSLQAEDVAVYYCAQFYSYPLTFGGGTKVEIK
Ans. highest

Qu. Queued: PcOxP_DB04_F06 (scFv, V domains shown, scFv in periplasmic extract) VH: EVQLLESGGGLVQPGGSLRLSCAASGDTFSDFYMEWVRQAPGKGLEWVAASRNKANDYTTEYADSVKGRFTISRDNSKNTLYLQMNSLRAEDTAVYYCARDYYGSSYWYFDVWGQGTLVTVSS VL: DIQMTQSPSSLSASVGDRVTITCTASESLSSSKHKVHYLAWYQQKPGKAPKLLIYGASNRYIGVPSRFSGSGSGTDFTLTISSLQPEDFATYYCAQFYSYPLTFGGGTKVEIK
Ans. middle

Qu. Queued: PcOxP_DB01_H04 (scFv, V domains shown, scFv in periplasmic extract) VH: EVQLLESGGGLVQPGGSLRLSCAASGFAFSDFYMEWVRQAPGKGLEWVAASRNKANDYTTEYADSVKGRFTISRDNSKNTLYLQMNSLRAEDTAVYYCARDYYGSHYWYFDVWGQGTLVTVSS VL: DIQMTQSPSSLSASVGDRVTITCTASESLYSSKHKVHYLAWYQQKPGKAPKLLIYGASNLQSGVPSRFSGSGSGTDFTLTISSLQPEDFATYYCAQFYYYPLTFGGGTKVEIK
Ans. highest
